Data provenance: paper PMC9460261

Test system: SARS-CoV-2 in Vero cells
Conditions used: read-out: VERO cells Average IC50, With Pgp pump inhibitor; 2 μM CP-100356; * one replicate only
Measured endpoint: pIC50
# pIC50 = -log10(concentration in molar units)

Q: Read off the recorded pIC50 for CC1(C)C(=O)N(c2ccc(C#N)c(C(F)(F)F)c2F)C(=S)N1c1ccc(CCCc2ncco2)nc1 [Proxalutamide, proxalutamide]
Result: 4.67

Q: Read off the recorded pIC50 for CC(C)C(=O)OC[C@H]1O[C@@H](n2ccc(NO)nc2=O)[C@H](O)[C@@H]1O [Molnupiravir, molnupiravir]
Result: 5.59

Q: Read off the recorded pIC50 for O=c1nc(NO)ccn1[C@@H]1O[C@H](CO)[C@@H](O)[C@H]1O [EIDD-1931]
Result: 5.89
